Consider the following molecules; for each one, report its half-life.
# Assay text: Preliminary pharmacokinetics
# Conditions: in vivo, iv; rat, 2 mg/kg, i.v.; read-out: Intravenous half-life (converted)
Only the number, expressed in h, is required.

What value of half-life has been reported for the following molecule? `COc1cccc2c(Nc3ccc(C(=O)Nc4ccccc4N)cc3)ncnc12`
1.27

Entry `Nc1ccccc1NC(=O)c1ccc(CNc2ncnc3ccccc23)cc1` please
0.95

* * *

# Target desc: HDAC1 (Homo sapiens (Human), UniProt Q13547)
# Sequence (Q13547 whole entry): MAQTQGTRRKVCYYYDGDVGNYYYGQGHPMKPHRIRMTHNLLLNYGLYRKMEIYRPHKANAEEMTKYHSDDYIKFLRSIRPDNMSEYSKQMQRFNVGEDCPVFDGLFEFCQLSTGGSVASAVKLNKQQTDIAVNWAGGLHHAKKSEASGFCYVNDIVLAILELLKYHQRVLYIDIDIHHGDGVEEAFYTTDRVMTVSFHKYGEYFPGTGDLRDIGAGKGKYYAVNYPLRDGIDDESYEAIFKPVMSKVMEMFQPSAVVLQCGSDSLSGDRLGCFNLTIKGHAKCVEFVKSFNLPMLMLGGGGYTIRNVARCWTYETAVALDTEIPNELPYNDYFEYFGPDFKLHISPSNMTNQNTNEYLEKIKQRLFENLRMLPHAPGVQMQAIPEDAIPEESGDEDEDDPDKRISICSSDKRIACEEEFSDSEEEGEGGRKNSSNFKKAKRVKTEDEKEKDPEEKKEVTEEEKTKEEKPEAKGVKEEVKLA
# Assay text: In vitro inhibition of subtype HDAC1 (HDAC1 Inhibitor Drug Screening Kit, Biovision)
# Type: biochemical
# Conditions: 10 μM; read-out: % Inhibition towards HDAC1
Consider the following compounds; for each one, report its inhibition at 10 µM.
Only the number, expressed in %, is required.

What value of inhibition at 10 µM has been reported for the following compound? `COc1cc2ncnc(Nc3ccc(C(=O)Nc4cc(-c5cccs5)ccc4N)cc3)c2cc1OC`
55.8

Entry `COc1cccc2ncnc(Nc3ccc(C(=O)Nc4ccccc4N)cc3)c12` please
78.4

Entry `Nc1ccccc1NC(=O)c1ccc(Nc2ncnc3cc(F)ccc23)cc1` please
83

Entry `COCCOc1cc2ncnc(Nc3ccc(C(=O)Nc4ccccc4N)cc3)c2cc1OCCOC` please
78.8
